Quick list: phosphorylation enrichment per entry.
tested on: AncSZ; experiment: phosphorylation enrichment, bacterial display (enrichment ratio); higher = better substrate or ligand; peptides without Tyr show the background
Lab note: jot down the number only; don't add units.

Which phosphorylation enrichment value is on record for AGREIYESDKC [TTN_Y4424] ? 0.949

Which phosphorylation enrichment value is on record for EATKGYPDDPT [G6PD_Y322_L323P] ? 0.901

Which phosphorylation enrichment value is on record for NRLNDYIFSFD [RARS1_Y516] ? 1.09

Which phosphorylation enrichment value is on record for FFIMMYTGSSV [DNAJC13_Y1131_N1135S] ? 0.97

Which phosphorylation enrichment value is on record for SHNELYYEEAE [VANGL1_Y344] ? 1.5

Which phosphorylation enrichment value is on record for SESSFYKSLNL [NGEF_Y289_A286S_YF] ? 1.06

====

target: Fyn (UniProt P06241); test: phosphorylation enrichment, bacterial display (enrichment ratio); higher = better substrate or ligand; peptides without Tyr show the background
Sequence (P06241 whole entry, looked up): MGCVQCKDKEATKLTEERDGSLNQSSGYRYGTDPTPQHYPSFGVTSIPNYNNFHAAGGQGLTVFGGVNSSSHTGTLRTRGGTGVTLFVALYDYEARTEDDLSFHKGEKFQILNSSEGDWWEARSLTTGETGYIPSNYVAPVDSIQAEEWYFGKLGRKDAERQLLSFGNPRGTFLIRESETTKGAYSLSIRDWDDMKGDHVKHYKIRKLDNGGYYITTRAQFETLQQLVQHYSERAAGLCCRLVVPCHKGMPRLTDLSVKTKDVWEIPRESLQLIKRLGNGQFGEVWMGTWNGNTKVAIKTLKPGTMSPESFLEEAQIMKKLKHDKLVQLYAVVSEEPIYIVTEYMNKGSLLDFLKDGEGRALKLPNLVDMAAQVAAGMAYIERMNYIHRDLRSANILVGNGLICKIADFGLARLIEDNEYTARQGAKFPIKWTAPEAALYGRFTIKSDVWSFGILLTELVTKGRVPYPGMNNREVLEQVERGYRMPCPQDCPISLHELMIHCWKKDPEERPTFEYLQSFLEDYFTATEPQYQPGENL
Quick list: phosphorylation enrichment per entry.
Lab note: jot down the number only; don't add units.

GAALAYGLDKS [HSPA9_Y230_A225G]; 0.483
RSFPSYYTSHV [NEFL_Y442]; 0.775
KIIRRYVSSEG [ANK2_Y3907]; 0.41
CTTIHYNFMFN [TP53_Y234_C238F_YF]; 0.52
FVTSMYNEILI [TRPV1_Y310_M315I]; 0.682
CTTIHYNHMCN [TP53_Y234_Y236H]; 0.455
LNEQHYGGLTG [PGAM4_Y92_R90Q]; 0.956
IRCQGYSHRIL [MYO3B_Y993_R990C]; 0.493

Which phosphorylation enrichment value is on record for TFEPNYGTVKR [RAPGEF6_Y1447_Q1452R_YF] ? 3.76

Which phosphorylation enrichment value is on record for DNAYQYMLTDR [MYH7_Y164] ? 0.658

Which phosphorylation enrichment value is on record for SLTRLCVGENA [NLRP3_Y861_Y861C] ? 0.503

Which phosphorylation enrichment value is on record for KQQEIYQELTQ [CD209_Y239] ? 6.33

Which phosphorylation enrichment value is on record for RFGRKYKKVRF [F8_Y442_I438F] ? 0.82

Which phosphorylation enrichment value is on record for KTGDYYDLYGG [PTPN11_Y63_N58K] ? 4.48

Which phosphorylation enrichment value is on record for CTTIHNNYMCN [TP53_Y234_Y234N] ? 0.432

Which phosphorylation enrichment value is on record for DPGVSYCTREE [PDHA1_Y301_R302C] ? 0.606

Which phosphorylation enrichment value is on record for MAFDRYVAICS [OR8D4_Y123_C120Y_YF] ? 0.515

Which phosphorylation enrichment value is on record for VLDSHYPEDEV [C1QBP_Y188_C186S] ? 0.473

Which phosphorylation enrichment value is on record for FSALDYKIFFF [WDPCP_Y210_L205F_YF] ? 0.416

Which phosphorylation enrichment value is on record for PDDPSYSLVDD [PSTPIP2_Y323_N322S] ? 0.885

Which phosphorylation enrichment value is on record for EMFNPCYGLFE [NEDD4L_Y679_Y679C] ? 4.58

Which phosphorylation enrichment value is on record for GGDAVYTNGAI [RFX2_Y82] ? 1.3

Which phosphorylation enrichment value is on record for SLKAFYGEDAK [ALDH3A1_Y272_E270A] ? 0.416

Which phosphorylation enrichment value is on record for QMQAAYQKAVA [HBD_Y131_V134A] ? 0.47

Which phosphorylation enrichment value is on record for GKTQQYDCKWF [BCR_Y751_YF] ? 0.432

Which phosphorylation enrichment value is on record for LGLTVYADCLA [ABCA4_Y2063] ? 0.589

Which phosphorylation enrichment value is on record for RGDCTYAPLLG [AR_Y269_M268T] ? 8.94

Which phosphorylation enrichment value is on record for GNHISYFQSDG [CACNA1C_Y1757_V1755I_YF] ? 0.418

Which phosphorylation enrichment value is on record for VFDMLYQVANL [USP24_Y1087_L1089V] ? 2.92

Which phosphorylation enrichment value is on record for KMGNEYVTKGQ [MYH7_Y410_V406M] ? 0.358

Which phosphorylation enrichment value is on record for AIMSFYAALIN [RYR1_Y2426_D2431N] ? 0.508

====

Quick list: phosphorylation enrichment per entry.
tested on: c-Abl (mouse); experiment: phosphorylation enrichment, bacterial display (enrichment ratio); higher = better substrate or ligand; peptides without Tyr show the background
Lab note: jot down the number only; don't add units.

Which phosphorylation enrichment value is on record for AIMSFYAALIN [RYR1_Y2426_D2431N] ? 1

Which phosphorylation enrichment value is on record for SPRDTYSDRIG [CTPS1_Y567_S571I] ? 0.411

====

Quick list: phosphorylation enrichment per entry.
biological target: FGFR1 (UniProt P11362); test: phosphorylation enrichment, bacterial display (enrichment ratio); higher = better substrate or ligand; peptides without Tyr show the background
Sequence (P11362 whole entry, looked up): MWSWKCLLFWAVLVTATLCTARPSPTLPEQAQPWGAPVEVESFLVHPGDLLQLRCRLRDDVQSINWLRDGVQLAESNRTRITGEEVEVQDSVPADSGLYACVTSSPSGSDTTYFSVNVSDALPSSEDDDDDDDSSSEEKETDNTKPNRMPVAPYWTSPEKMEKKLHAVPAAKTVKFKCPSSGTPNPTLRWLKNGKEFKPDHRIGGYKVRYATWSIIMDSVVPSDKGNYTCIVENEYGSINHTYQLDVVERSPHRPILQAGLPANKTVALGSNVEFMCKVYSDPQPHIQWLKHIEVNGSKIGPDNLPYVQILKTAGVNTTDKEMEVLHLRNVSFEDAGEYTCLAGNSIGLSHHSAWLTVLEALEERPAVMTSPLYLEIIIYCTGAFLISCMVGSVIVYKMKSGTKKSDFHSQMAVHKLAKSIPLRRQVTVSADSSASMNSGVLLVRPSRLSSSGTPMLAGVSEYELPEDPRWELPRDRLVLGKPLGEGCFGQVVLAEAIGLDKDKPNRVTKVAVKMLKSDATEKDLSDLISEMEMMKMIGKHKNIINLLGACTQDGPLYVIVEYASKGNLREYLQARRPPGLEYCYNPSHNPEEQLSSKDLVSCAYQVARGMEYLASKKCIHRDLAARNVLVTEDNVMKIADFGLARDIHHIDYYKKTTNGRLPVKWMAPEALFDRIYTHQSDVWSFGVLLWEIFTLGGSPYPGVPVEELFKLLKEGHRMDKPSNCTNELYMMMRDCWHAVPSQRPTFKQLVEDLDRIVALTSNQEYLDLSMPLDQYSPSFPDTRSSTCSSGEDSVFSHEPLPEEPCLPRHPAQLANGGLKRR
Lab note: jot down the number only; don't add units.

TYGVVYRAKDK [CDK11B_Y453]; 0.583

Which phosphorylation enrichment value is on record for KSIDEYLKLVG [RASAL2_Y381_E379D] ? 0.465

Which phosphorylation enrichment value is on record for FSNVLYRPRGA [TMIGD2_Y197_YF] ? 0.388

====

tested on: Fer (mouse); experiment: phosphorylation enrichment, bacterial display (enrichment ratio); higher = better substrate or ligand; peptides without Tyr show the background
OUTCOME_MEASURE: phosphorylation enrichment
Lab note: jot down the number only; don't add units.

// solved cases for phosphorylation enrichment follow
EEQKRYYNAMK [SCN5A_Y1494_K1493R]; 0.436
SGGGLYRDMGA [CBX8_Y321]; 0.373
DDSSAYRSVDE [BCKDHA_Y345]; 0.721
QGIFGYHHHMQ [UFSP2_Y287_Y290H_YF]; 0.779
GGTPLYMDRQG [AGXT_Y194]; 0.431
AIMSFYAALIN [RYR1_Y2426_D2431N]; 0.672
KVKEQYQDVPM [PKP2_Y659]; 0.36
KGELRYMHSRV [ABCD1_Y281]; 0.375
NSRFTCKLEVK [USH2A_Y3747_Y3747C_YF]; 0.533
LEPHIYAVADV [MYO9A_Y216]; 1.64

Which phosphorylation enrichment value is on record for LKVKAYRFSIS [LCT_Y974] ? 0.52

Which phosphorylation enrichment value is on record for VHNLDYFKQTT [FGFR3_Y647_K650Q_YF] ? 0.48

Which phosphorylation enrichment value is on record for LIYTNYEAGKD [GSTP1_Y112] ? 5.02

Which phosphorylation enrichment value is on record for VHHLVYHHHHH [CACNA1H_Y519] ? 0.896

Which phosphorylation enrichment value is on record for NQDRTYFESVR [SPEN_Y632_YF] ? 0.665

Which phosphorylation enrichment value is on record for RREGVYRNNID [PTEN_Y46_L42R] ? 0.469

Which phosphorylation enrichment value is on record for SCPANYFAFKI [FAM3D_Y65_P60S] ? 0.785

Which phosphorylation enrichment value is on record for CDIARYIVSQL [MAST2_Y461_P459A] ? 0.505

====

Quick list: phosphorylation enrichment per entry.
molecular target: Jak2 (UniProt O60674); test: phosphorylation enrichment, bacterial display (enrichment ratio); higher = better substrate or ligand; peptides without Tyr show the background
Sequence (O60674 whole entry, looked up): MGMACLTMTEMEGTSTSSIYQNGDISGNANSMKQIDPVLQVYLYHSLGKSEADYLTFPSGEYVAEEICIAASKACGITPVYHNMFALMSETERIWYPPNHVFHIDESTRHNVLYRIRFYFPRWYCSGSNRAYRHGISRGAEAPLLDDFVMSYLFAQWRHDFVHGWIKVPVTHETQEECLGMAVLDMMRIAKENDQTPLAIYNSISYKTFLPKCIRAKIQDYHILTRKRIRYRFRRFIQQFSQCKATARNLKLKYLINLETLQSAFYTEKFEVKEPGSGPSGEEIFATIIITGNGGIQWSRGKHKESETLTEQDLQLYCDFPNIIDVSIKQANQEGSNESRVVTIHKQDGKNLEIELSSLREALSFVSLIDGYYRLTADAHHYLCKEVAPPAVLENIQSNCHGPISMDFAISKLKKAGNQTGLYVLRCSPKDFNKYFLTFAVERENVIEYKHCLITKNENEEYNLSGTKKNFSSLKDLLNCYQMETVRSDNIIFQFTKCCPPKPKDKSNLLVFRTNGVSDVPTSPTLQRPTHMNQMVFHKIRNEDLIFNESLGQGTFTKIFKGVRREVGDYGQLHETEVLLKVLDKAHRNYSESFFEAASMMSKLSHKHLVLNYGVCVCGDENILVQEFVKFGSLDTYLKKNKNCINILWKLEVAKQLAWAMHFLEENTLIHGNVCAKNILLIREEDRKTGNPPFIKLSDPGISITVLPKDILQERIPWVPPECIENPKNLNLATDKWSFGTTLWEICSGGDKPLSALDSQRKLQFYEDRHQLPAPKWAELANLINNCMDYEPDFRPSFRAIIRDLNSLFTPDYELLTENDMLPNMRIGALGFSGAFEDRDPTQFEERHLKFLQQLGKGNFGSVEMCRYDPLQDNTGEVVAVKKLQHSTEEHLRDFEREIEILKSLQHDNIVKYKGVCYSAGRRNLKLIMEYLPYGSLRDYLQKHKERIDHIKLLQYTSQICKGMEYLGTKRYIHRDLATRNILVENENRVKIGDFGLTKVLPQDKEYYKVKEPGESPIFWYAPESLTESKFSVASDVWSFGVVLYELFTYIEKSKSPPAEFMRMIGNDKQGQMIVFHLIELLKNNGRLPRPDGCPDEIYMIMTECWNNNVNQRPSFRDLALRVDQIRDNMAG

FSALDYKIFFF [WDPCP_Y210_L205F_YF]; 1.69

Which phosphorylation enrichment value is on record for FPKARYRWLVL [APTX_Y214_H215R_YF] ? 0.717

Which phosphorylation enrichment value is on record for CIILLYIFLKN [STXBP1_Y411_R406C] ? 0.553

Which phosphorylation enrichment value is on record for NNIDYYKKTTN [FGFR2_Y657] ? 0.524

Which phosphorylation enrichment value is on record for QSQQAYQEAFE [YWHAZ_Y149] ? 1.28

Which phosphorylation enrichment value is on record for DMLTLYVNTAA [SMCHD1_Y403_Q400L] ? 1.13

Which phosphorylation enrichment value is on record for DEEDFYQGSME [ASCC1_Y36] ? 1.54

Which phosphorylation enrichment value is on record for GGQDVYGDFGG [Probound] ? 0.905

====

target: SHP2-C SH2; test: SH2 binding enrichment of the phosphorylated peptide, bacterial display (enrichment ratio); higher = better substrate or ligand; peptides without Tyr show the background;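 further: peptide library displayed on the E. coli surface as eCPX fusions, selected cells deep-sequenced, score is each peptide's frequency after selection divided by its frequency in the input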
OUTCOME_MEASURE: SH2 binding enrichment
Lab note: jot down the number only; don't add units.

Which SH2 binding enrichment value is on record for AKQVGYENAGT [PC_Y304] ? 0.646
